meta.source: the supplement of paper PMC10065799

# Test system: Fer (mouse);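 also: 11-residue human phosphosite peptides and single-mutation variants displayed on the E. coli surface, counted by deep sequencing, each peptide's frequency after selection divided by its frequency in the unselected input library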;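 also: frequency after pTyr selection over input frequency; kinase dosed for 20-30% of maximal phosphorylation in three min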
# assay_summary: phosphorylation enrichment, bacterial display (enrichment ratio); higher = better substrate or ligand; peptides without Tyr show the background
Decide by phosphorylation enrichment: equal to or exceeding 0.5 means Satisfied, less means Not satisfied.

sequence_entry: GKTFTYRSVFF [ZNF80_Y200]
group_label: Not satisfied

sequence_entry: QQLVAYYSKHT [SRC_Y232_A237T]
group_label: Not satisfied

sequence_entry: RRERPYGGGGG [FUS_Y526]
group_label: Not satisfied

sequence_entry: ELELLYPDRNS [NYX_Y284_L285P]
group_label: Not satisfied

sequence_entry: PIPIKYKAMKK [MYD88_Y257_L252P]
group_label: Not satisfied

sequence_entry: MKGEYYRYLAE [YWHAG_Y131_D129E]
group_label: Not satisfied

sequence_entry: VSGIPYGQPKQ [NEU1_Y251]
group_label: Not satisfied

sequence_entry: LIHLHYIRRDF [BBS4_Y43_K46R_YF]
group_label: Satisfied

sequence_entry: KGSLPYSLILD [PKD1L2_Y406_N407S]
group_label: Satisfied

sequence_entry: ERLWDCGMSSS [F8_Y1728_Y1728C]
group_label: Not satisfied

sequence_entry: NDQANYLLNTD [ADA_Y290_S291L]
group_label: Not satisfied

sequence_entry: KSIEEYLKLVG [RASAL2_Y381]
group_label: Not satisfied

sequence_entry: MKGDFYRFLAE [YWHAG_Y131_YF]
group_label: Not satisfied
